target: HIV-1 APV13 envelope glycoprotein (Env) (HIV-1); assay: cell-based or functional assay
Reported endpoint: IC50 neutralization (mg/L)
Give just the number in mg/L; leave the unit off.

Problem: For the binder shown here, PGT-123 (antibody, V domains shown) VH: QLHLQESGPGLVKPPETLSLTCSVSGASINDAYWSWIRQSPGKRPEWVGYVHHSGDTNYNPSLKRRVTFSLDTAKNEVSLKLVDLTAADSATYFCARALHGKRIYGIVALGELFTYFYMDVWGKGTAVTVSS VL: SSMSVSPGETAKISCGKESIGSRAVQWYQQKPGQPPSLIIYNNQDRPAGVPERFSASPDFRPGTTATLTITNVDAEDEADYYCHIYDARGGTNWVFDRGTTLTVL , give the reported IC50 neutralization.
Solution: 0.222

Problem: For the binder shown here, PGT-130 (antibody, V domains shown) VH: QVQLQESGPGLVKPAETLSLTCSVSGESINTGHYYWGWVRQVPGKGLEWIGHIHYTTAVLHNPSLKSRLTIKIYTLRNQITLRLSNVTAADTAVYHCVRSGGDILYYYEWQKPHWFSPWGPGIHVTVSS VL: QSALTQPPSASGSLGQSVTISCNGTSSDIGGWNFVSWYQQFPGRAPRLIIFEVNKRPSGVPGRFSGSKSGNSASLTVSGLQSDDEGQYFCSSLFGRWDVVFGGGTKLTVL , give the reported IC50 neutralization.
Solution: 0.0345

Problem: For the binder shown here, PGT-126 (antibody, V domains shown) VH: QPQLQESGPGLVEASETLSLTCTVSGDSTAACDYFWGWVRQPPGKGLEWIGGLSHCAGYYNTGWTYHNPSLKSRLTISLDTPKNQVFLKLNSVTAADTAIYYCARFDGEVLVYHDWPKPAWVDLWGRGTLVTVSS VL: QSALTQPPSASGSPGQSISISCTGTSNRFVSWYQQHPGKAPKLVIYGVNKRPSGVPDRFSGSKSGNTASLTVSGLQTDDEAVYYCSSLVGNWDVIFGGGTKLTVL , give the reported IC50 neutralization.
Solution: 0.012
